Each recorded value in this set is attributed to the kinase profiling compilation of Christmann-Franck et al. (2016).

Quick reference for kinase still bound, per cent of control among some compounds
# TESTED_TARGET: CSK (human) (UniProt P41240)
# Sequence (P41240 whole entry, looked up): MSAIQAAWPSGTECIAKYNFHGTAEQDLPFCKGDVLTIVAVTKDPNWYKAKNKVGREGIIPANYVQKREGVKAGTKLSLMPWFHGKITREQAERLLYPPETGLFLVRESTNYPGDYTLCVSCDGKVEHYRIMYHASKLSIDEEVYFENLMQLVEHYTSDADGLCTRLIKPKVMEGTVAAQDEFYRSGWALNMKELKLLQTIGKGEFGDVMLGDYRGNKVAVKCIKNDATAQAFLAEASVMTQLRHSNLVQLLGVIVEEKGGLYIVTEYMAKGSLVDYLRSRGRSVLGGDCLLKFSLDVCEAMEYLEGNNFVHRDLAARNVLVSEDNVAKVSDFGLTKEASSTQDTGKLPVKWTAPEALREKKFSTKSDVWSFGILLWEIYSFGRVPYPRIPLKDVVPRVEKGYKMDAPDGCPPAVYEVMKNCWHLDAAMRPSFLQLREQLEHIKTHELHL
# PROTOCOL_SUMMARY: KINOMEscan competition binding
# CONDITIONS: compound 10.0 µM
API: value field is a number in %; no unit string.

Sample answers from the record:
ENTRY_SMILES: COc1cc(N2CCC(C(N)=O)CC2)ccc1Nc1nc(N)c(Cl)c(Nc2ccccc2S(=O)(=O)C(C)C)n1
TESTED_TARGET: CSK (human) (UniProt P41240)
kinase still bound, per cent of control [%]: 100

ENTRY_SMILES: CCN(CCO)CCCOc1ccc2c(Nc3cc(CC(=O)Nc4cccc(F)c4)[nH]n3)ncnc2c1
TESTED_TARGET: CSK (human) (UniProt P41240)
kinase still bound, per cent of control [%]: 24

ENTRY_SMILES: N#C/C(=C1/Nc2ccccc2S1)c1ccnc(NCCc2cccnc2)n1
TESTED_TARGET: CSK (human) (UniProt P41240)
kinase still bound, per cent of control [%]: 88

Let us examine a further case.
Inquiry: For CSK (human) (UniProt P41240), give kinase still bound, per cent of control of the listed compound: "COc1ccc(N(C(=O)Oc2cc(C(=O)Nc3cccc(C(F)(F)F)c3)ccc2C)c2ccnc(Nc3ccc(N4CCN(C)CC4)cc3)n2)c(OC)c1"
Reply text: 1.2
